Tested on: hTERT-HMEC;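 note: secreted proteins added to cultured cells, EdU pulse at the end, nuclei found by Hoechst imaging, EdU status from nuclear versus surrounding ring intensity ratio, PBS as neutral control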
Assay Name: percentage of EdU-negative (G0-arrested) nuclei per well, 72 h; higher = more G0 arrest
Measurement Parameters: protein concentration 0.225 µM; reference: sequence is the full UniProt precursor, the tested protein was the secreted form or ectodomain
Kindly supply the reported percentage of EdU-negative values for the records listed here.
Give the quantity in %, number only.

Value of measured percentage of EdU-negative for the entry `MDYPTLLLALLHVYRALCEEVLWHTSVPFAENMSLECVYPSMGILTQVEWFKIGTQQDSIAIFSPTHGMVIRKPYAERVYFLNSTMASNNMTLFFRNASEDDVGYYSCSLYTYPQGTWQKVIQVVQSDSFEAAVPSNSHIVSEPGKNVTLTCQPQMTWPVQAVRWEKIQPRQIDLLTYCNLVHGRNFTSKFPRQIVSNCSHGRWSVIVIPDVTVSDSGLYRCYLQASAGENETFVMRLTVAEGKTDNQYTLFVAGGTVLLLLFVISITTIIVIFLNRRRRRERRDLFTESWDTQKAPNNYRSPISTSQPTNQSMDDTREDIYVNYPTFSRRPKTRV` : 5.13

Value of measured percentage of EdU-negative for the entry `MAPAQRPLLPLLLLLLPLPPPPFARAEDAARANSDRYAVYWNRSNPRFHAGAGDDGGGYTVEVSINDYLDIYCPHYGAPLPPAERMEHYVLYMVNGEGHASCDHRQRGFKRWECNRPAAPGGPLKFSEKFQLFTPFSLGFEFRPGHEYYYISATPPNAVDRPCLRLKVYVRPTNETLYEAPEPIFTSNNSCSSPGGCRLFLSTIPVLWTLLGS` : 9.78

Value of measured percentage of EdU-negative for the entry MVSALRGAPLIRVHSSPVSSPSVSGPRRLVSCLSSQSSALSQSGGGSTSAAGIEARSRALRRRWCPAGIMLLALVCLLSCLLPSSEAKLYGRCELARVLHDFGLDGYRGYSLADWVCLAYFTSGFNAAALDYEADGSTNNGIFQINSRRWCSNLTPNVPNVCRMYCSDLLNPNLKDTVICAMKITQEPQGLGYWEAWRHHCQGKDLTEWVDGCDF [Q8IXA5] : 10

Origin of the recorded values: the supplement of paper PMC11316812
